Recorded values, source patent US12466831B2.

system.tested: human A2b adenosine receptor (Homo sapiens)
Construct: purchased Perkin Elmer ES-013-C; host or cells: HEK293 cells recombinantly expressing the receptor; membranes made from them
Sequence (P29275 whole entry): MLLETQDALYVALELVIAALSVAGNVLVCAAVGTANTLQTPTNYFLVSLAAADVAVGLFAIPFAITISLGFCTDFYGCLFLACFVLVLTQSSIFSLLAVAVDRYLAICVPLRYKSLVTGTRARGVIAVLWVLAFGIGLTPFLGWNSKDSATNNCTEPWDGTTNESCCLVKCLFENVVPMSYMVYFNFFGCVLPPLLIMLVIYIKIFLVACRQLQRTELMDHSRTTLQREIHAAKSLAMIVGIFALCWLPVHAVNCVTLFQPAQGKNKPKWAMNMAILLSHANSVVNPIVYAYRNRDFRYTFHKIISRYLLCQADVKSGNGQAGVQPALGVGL
assay.summary: A2b binding affinity, radioligand filtration binding assay
condition.notes: tritiated proprietary A2b antagonist, HEK293 membranes expressing human A2b
readout: IC50

molecule	test.value
Cc1cc(N2CCC[C@@H](c3nc4c(C)c(-c5ncco5)nc(N)n4n3)C2)cn(C(F)F)c1=O	116 nM
Cc1c(-c2ncco2)nc(N)c2nc(C3CCCC(C)(O)C3)nn12 (single isomer, unassigned) [Example 8.5]	9140 nM
Cc1c(-c2ncco2)nc(N)n2nc([C@@H]3CC[C@H](C)N(c4cnn(CC(C)(C)O)c4)C3)nc12	19.8 nM
Cc1c(-c2ncco2)nc(N)n2nc([C@@H]3CCCN(c4cnn(C(C)C)c4)C3)nc12	167 nM
Cc1c(-c2ncco2)nc(N)n2nc(C3CCCC(C)(O)C3)nc12 (single isomer, unassigned) [Example 8.2-1]	5550 nM
Cc1c(-c2ncco2)nc(N)n2nc(C3CCN(c4cnn(CC(C)(C)O)c4)C3)nc12 (single isomer, unassigned) [Example 3.15-1]	386 nM
Cc1cc(N2CCC[C@@H](c3nc4c(C)c(-c5ncco5)nc(N)n4n3)C2)cnc1OC(F)F	149 nM
CCn1cc(N2C[C@@H](c3nc4c(C)c(-c5ncco5)nc(N)n4n3)CC[C@H]2C)cn1	2400 nM
Cc1c(-c2ncco2)nc(N)n2nc([C@@H]3CCCN(c4cnn(CC5(O)CCC5)c4)C3)nc12	191 nM
Cc1c(-c2ncco2)nc(N)c2nc(C3CCCC(C)(O)C3)nn12 (single isomer, unassigned) [Example 8.4]	411 nM
Cc1c(-c2ncco2)nc(N)n2nc([C@@H]3CCCN(c4cnn(C(C)C(C)(C)O)c4)C3)nc12 (single isomer, unassigned) [Example 2.11]	81.6 nM
Cc1c(-c2ncco2)nc(N)n2nc([C@@H]3CCCN(c4cnn(CC(C)(C)O)c4C)C3)nc12	535 nM
Cc1c(-c2cccc(F)c2)nc(Br)c2nc([C@H]3C[C@@H]3C(C)(C)O)nn12 (mixture of isomers)	202 nM
Cc1c(-c2ncco2)nc(N)c2nc([C@H]3CCCN(c4cnn(C)c4)C3)nn12 (single isomer, unassigned)	7390 nM
Cc1c(-c2ncco2)nc(N)n2nc([C@H]3C[C@@H](O)C3)nc12	250 nM
